- measuredOn: hGLP1R (Homo sapiens)
- Construct: expressed in transfected cells; host or cells: HEK-293 cells carrying a CRE-luciferase reporter gene
- Sequence (P43220 24-463): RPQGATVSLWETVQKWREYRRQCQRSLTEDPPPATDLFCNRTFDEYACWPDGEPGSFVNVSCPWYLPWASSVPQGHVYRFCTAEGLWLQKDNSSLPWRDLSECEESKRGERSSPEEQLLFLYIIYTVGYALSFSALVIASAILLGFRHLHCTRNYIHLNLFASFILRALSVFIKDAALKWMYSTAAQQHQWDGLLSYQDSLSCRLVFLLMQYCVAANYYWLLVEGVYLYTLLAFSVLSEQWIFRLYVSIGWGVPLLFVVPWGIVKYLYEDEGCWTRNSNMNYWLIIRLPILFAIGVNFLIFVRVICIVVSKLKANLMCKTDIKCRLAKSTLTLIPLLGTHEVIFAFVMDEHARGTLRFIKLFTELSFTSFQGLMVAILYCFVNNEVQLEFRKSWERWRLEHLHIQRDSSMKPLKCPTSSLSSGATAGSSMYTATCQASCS
- protocolDetails: hGLP1R CreLuc reporter gene assay in 0.5% and 100% plasma
- Format: cell-based
- conditionSummary: CreLuc reporter gene assay, 0.5% human plasma; read-out: hGLP1R 0.5% hP
Starred links: 1 amine or outer side, 2 acyl side, 3 side chain; linkers in the order of their positions; H or OH if unused. Non-standard residues stand in square brackets, D forms with d. Groups on a side chain read outwards from the residue. No end group written: not given here. *: point of attachment. C20 diacid = O=C(O)CCCCCCCCCCCCCCCCCCC(=O)*; C18 diacid = O=C(O)CCCCCCCCCCCCCCCCC(=O)*; γGlu = O=C(O)[C@H](CCC(=O)[*:2])N[*:1]; εLys = N[C@@H](CCCCN[*:1])C(=O)[*:2]; Tle = CC(C)(C)[C@H](N)C(=O)O; AEEA = NCCOCCOCC(=O)O; Aib = CC(C)(N)C(=O)O
Assignment: determine reported EC50 for the given substances.
Give me the value, and tack the unit on after it.

Problem: Tell me EC50 of H-Y[Aib]EGTFTSDYSI[Aib]LEKQAQ[Aib]EFVEWLIK([γGlu-γGlu-γGlu-γGlu-γGlu-γGlu-C20 diacid])GGPSSGASLRHYYNWLTRQRY-NH2 [Compound 198] when tested on hGLP1R (Homo sapiens).
Solution: 470 pM

Problem: Please respond with reported EC50 (system hGLP1R (Homo sapiens)) for H-Y[Aib]EGTFTSDYSI[Aib]LEKQAQ[Aib]EFVEWLIK([εLys-γGlu-γGlu-γGlu-γGlu-γGlu-C18 diacid])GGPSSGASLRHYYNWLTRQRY-NH2 [Compound 159] .
Solution: 190 pM

Problem: Name the value of EC50 reported for H-Y[Aib]EGTFTSDYSI[Aib]LEKQAQ[Aib]AFVQWLIK([εLys-γGlu-γGlu-γGlu-γGlu-γGlu-C18 diacid])GGPSEGASLRHYYNWLTRQRY-NH2 [Compound 267] when tested on hGLP1R (Homo sapiens).
Solution: 70 pM

Problem: Write down measured EC50 (hGLP1R (Homo sapiens)) for this substance. H-Y[Aib]EGTFTSDYSI[Aib]LEKQAQ[Aib]EFVEWLIK([AEEA-AEEA-γGlu-γGlu-γGlu-γGlu-C18 diacid])GGPSSPASLRHYYNWLTRQRY-NH2 [Compound 56]
Solution: 250 pM

Problem: Enter measured EC50, system hGLP1R (Homo sapiens), for the substance shown: Y[Aib]EGTFTSDYSI[Aib]LEKQAQ[Aib]AFVQWLIK([Glu-γGlu-γGlu-γGlu-γGlu-C20 diacid])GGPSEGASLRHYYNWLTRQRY-NH2 [Compound 243]
Solution: 120 pM

Problem: Tell me its EC50 on hGLP1R (Homo sapiens): H-Y[Aib]EGTFTSDYSI[Aib]LEKQAQ[Aib]AFVEWLIK([γGlu-γGlu-γGlu-γGlu-C18 diacid])GGPEEGASLRHYYNWLTRQRY-NH2 [Compound 272]
Solution: 310 pM

Problem: Determine reported EC50 for H-Y[Aib]EGTFTSDYSI[Aib]LEKEAQ[Aib]KFVEWLIK([εLys-γGlu-γGlu-γGlu-γGlu-γGlu-γGlu-C20 diacid])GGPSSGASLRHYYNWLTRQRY-NH2 [Compound 46] ; test system: hGLP1R (Homo sapiens).
Solution: 210 pM

Problem: Give EC50 for this entry on hGLP1R (Homo sapiens): H-Y[Aib]EGTFTSDYSI[Aib]LEKQAQ[Aib]AFVEWLIK([εLys-γGlu-γGlu-γGlu-γGlu-γGlu-γGlu-C20 diacid])GGPSSGASLR[Tle]YYNWLTRQRY-NH2 [Compound 119]
Solution: 260 pM

Problem: Look up and report EC50, with hGLP1R (Homo sapiens) as system, for H-Y[Aib]EGTFTSDYSI[Aib]LEKQAQ[Aib]AFVEWLIK([εLys-γGlu-γGlu-γGlu-γGlu-γGlu-γGlu-C20 diacid])GGPSSGASLRHYYN[Aib]LTRQRY-NH2 [Compound 218]
Solution: 160 pM

Problem: Write down measured EC50 (hGLP1R (Homo sapiens)) for this substance. H-Y[Aib]EGTFTSDYSI[Aib]LEKQAQ[Aib]AFVEWLIK([εLys-γGlu-γGlu-γGlu-γGlu-γGlu-C18 diacid])GGPESGASLRHYYNWLTRQRY-NH2 [Compound 152]
Solution: 130 pM
